Biological target: UniProt:P49336
Sequence (P49336 whole entry, looked up): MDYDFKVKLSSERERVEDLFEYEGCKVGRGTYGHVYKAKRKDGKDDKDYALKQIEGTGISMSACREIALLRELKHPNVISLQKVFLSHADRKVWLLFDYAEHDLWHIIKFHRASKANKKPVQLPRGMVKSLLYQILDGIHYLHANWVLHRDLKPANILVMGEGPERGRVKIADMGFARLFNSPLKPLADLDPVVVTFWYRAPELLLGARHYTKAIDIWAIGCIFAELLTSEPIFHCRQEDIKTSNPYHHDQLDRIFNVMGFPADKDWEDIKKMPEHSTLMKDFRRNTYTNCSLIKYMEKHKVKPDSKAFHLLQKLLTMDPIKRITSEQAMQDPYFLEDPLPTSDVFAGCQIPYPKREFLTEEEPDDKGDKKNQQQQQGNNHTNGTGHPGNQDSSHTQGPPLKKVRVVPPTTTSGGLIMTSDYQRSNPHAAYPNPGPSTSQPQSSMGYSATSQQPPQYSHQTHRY
Sequence (P24863 whole entry partner, looked up): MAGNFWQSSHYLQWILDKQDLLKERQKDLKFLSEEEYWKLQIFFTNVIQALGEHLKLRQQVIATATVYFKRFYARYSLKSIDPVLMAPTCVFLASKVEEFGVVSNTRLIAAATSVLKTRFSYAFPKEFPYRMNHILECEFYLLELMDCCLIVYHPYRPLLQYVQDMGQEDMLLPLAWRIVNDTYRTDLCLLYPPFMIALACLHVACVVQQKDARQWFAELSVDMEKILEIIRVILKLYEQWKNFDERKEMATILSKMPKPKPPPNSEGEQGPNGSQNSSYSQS
Assay: LanthaScreen Eu Kinase Binding Assay (competitive kinase binding assay)
Conditions: bifunctional compounds; displacing the Tracer from the target kinase; read-out: Enzyme IC50
pIC50: −log10 of the molar value.
# Lookup of reported pIC50 keyed by entry

Use the examples below as a reference point.
compound	pIC50
CN1C(=O)CCC(N2C(=O)c3cccc(NCCOCCOCCOCCOCCC(=O)N(C)[C@H]4CC[C@]5(C)C6CC[C@]7(C)[C@@H](c8ccc9ccncc9c8)CC[C@H]7C6CC[C@H]5C4)c3C2=O)C1=O (stereo partly shown) [Compound I-5]	6.15 to 6.52
CN(C(=O)CCOCCOCCNc1cccc2c1C(=O)N(C1CCC(=O)NC1=O)C2=O)[C@H]1CC[C@]2(C)C3CC[C@]4(C)[C@@H](c5ccc6ccncc6c5)CC[C@H]4C3CC[C@H]2C1 (stereo partly shown) [Compound I-2]	6.70 to 7.00
CN(C(=O)CCOCCOCCOCCOCCNc1cccc2c1C(=O)N(C1CCC(=O)NC1=O)C2=O)[C@H]1CC[C@]2(C)C3CC[C@]4(C)[C@@H](c5ccc6ccncc6c5)CC[C@H]4C3CC[C@H]2C1 (stereo partly shown) [Compound I-1]	6.70 to 7.00

Please examine the following record next.
Please give the measured pIC50 for this compound: CN(C(=O)CCOCCOCCNc1cccc2c1C(=O)N(C1CCC(=O)NC1=O)C2=O)[C@H]1CC[C@@]2(C)C(CCC3C4CC[C@H](c5ccc6ccncc6c5)C4(C)CCC32)C1 (stereo partly shown) [Compound I-3] 6.52 to 6.70

Origin of values: patent US12325725B2
